Several publications report IC50 on UniProt P15382; those values are gathered here.

sample-smiles | result
NC(=O)c1cnc(N[C@H](C2CC2)C(F)(F)F)c2c1[nH]c1cc(-c3cnc(N)nc3)ccc12 | > 10 µM

Here are 3 compounds. What values of IC50 were reported for them?
1. c1ccc([C@H]([C@@H](c2ccccn2)N2CCCCC2)N2CCCCC2)nc1
2. CCOc1cc(CN2CCC3(CC2)CC(=O)N(c2ccc(C(=O)O)cc2)C3)cc(OCC)c1-c1ccc(F)cc1.O=C(O)C(F)(F)F
3. Cc1cc(-c2ccc(C(=O)[C@@H]3CCCC[C@H]3C(=O)Nc3cnn(C)c3C(=O)NOC(C)(C)C)cc2)[nH]n1

Ans.
["17 µM", "> 15 µM", "> 33 µM"]

Can you give me IC50 for all of these, one by one?
1. C[C@@]1(c2cc(F)cc(F)c2)CNC2(CCCC2)C(=O)N1CC(=O)Nc1cnc2c(c1)C[C@@]1(C2)C(=O)Nc2ncccc21
2. Cc1cc(-c2ccc(C(=O)[C@@H]3CCCC[C@H]3C(=O)Nc3cnn(C)c3S(N)(=O)=O)cc2)[nH]n1

Ans.
["> 20 µM", "> 33 µM"]
